target: T1, human CD4 on cells (SKW3 cells; human PBMCs) (human, UniProt P01730 26-458); assay: FACS confirmation, supernatant on SKW3 cells; background gMFI 3300
T1 construct: whole, on cells; SKW3 CD4 knockout cells served as the negative cell line in the primary screen; also called hCD4; huCD4
attributeMeasured: gMFI on SKW3 WT, anti-mFc 647 (gMFI)
Numeric answer only, unit gMFI assumed.

Bench note: what gMFI on SKW3 WT, anti-mFc 647 did 75110_10O16A (antibody, V domains shown, Tested as non-clonal AlivaMab Mouse Kappa hybridoma supernatant (detected with anti-mouse Fc gamma and anti-human kappa); also called 75110_10016A) VH: EVQLVESGGGLVQPGGSLRLSCAASGFTFSNSDMHWVRQATGKGLEWVSTIGTAGDTYYPGSVKGRFTISRENAKNSLYLQMNSLRAGDTAVYYCARGGLYYYGMDVWGQGTTVTVSS VL: ENVLTQSPGTLSLSPGERATLSCRASQSVSSSYLAWYQQKPGQAPRLLIYGASSRATGIPDRFSGSGSGTDFTLTISRLEPEDFAVYYCHQFGSSPFTFGPGTKVDIK show?
5460

Bench note: what gMFI on SKW3 WT, anti-mFc 647 did 75110_08M20A (antibody, V domains shown, Tested as non-clonal AlivaMab Mouse Kappa hybridoma supernatant (detected with anti-mouse Fc gamma and anti-human kappa)) VH: QVQLQESDPGLVKPSETLSLTCTVSGGSISSYYWSWIRQPAGKGLEWIGRIYASGSTNYNPSLKSRVTMSVDTSKNQFSLKLSSVTAADTAVYYCARDREGYYYYGMDVWGQGTTVTVSS VL: DIQMTQSPSSLSASVGDRVTITCQASQDISKYLNWYQQKPGKAPNLLIYAASNLETGVPSRFSGSGSGTDFTFTISSLQPEDIAAYYCQQYDSLPITFGQGTRLEIK show?
30700

Bench note: what gMFI on SKW3 WT, anti-mFc 647 did 75110_14P08A (antibody, V domains shown, Tested as non-clonal AlivaMab Mouse Kappa hybridoma supernatant (detected with anti-mouse Fc gamma and anti-human kappa)) VH: QVQLQESGPGLVKSSETLSLTCTDSGDSIRSYYWNWIRQPAGKGLEWIGRIYASGSTNYNPSLKSRVIMSADTSKNRFSLKLSSVTAADTAVYYCARDGGVGDSLDYWGQGTLVTVSS VL: DIVMTQTPLSLPVTPGEPASISCRSSQSLLDSDDGNTYLDWYLQKPGQSPQLLIYTLSYRASGVPDRFSGSGSGTDFTLKISRVEAEDVGVYYCMQRIEFPFTFGPGTKVDIK show?
20300
